# EXPERIMENTAL DETAILS: yeast display, Sf9 membrane polyspecificity reagent, FACS + sequencing; frameworks hold sequencing errors

ENTRY SEQUENCE	polyreactivity (PSR sort gate)
QVQLVESGGGLVQAGGSLRLSCAASGRTFWFYDMGWYRQAPGKEREFVASITSSGGSTYYADSVKGRFTISRDIAKNTVYLQMNSLKPEDTAVYYCAASFYWTTRYSREYDYWGQGTQVTVSS	high polyreactivity
QVQLVESGGGLVQAGGSLRLSCAASGRTFAIYAMGWYRQAPGKERELVATIRGGSTYYADSVKGRFTISRDNAKNTVYLQMNSLKPEDTAVYYCAAGWYRYYGGFGYWGQGTQVTVSS	high polyreactivity

----------
# EXPERIMENTAL DETAILS: yeast display, Sf9 membrane polyspecificity reagent, FACS + sequencing; frameworks hold sequencing errors

ENTRY SEQUENCE	polyreactivity (PSR sort gate)
QDQLVESGGGLVQAGGSLRLSCSASGRTFHRNAMGWYRQAPGKERESVAAITGDGRTNYADSVKGRFTISRDNAKNTVYLQMNSLKPEDNAVYYCAARFSYRSYDYWGQGTQVTVSS	low polyreactivity
QVQLVESGGGLVQAGGSLRLRCAASGFTFPSYPMGWYRQAPGKEREVVAAISQRGGSTYYADSEKGRFTISRDNAKHTVYLQLNSLKPEDTAVYYCAALAPRTGRPTYGYWGQGTQVTVSS	low polyreactivity
QVQLVESGGGLVQAGGSLRLSCAASGSIFYFNVMGWYRQAPGKERELVATITWRDASTNYADSVKARFTISRDNAKNTVYLQMNSLKPEDTAVYYCNADSDWGYFDYDYYYWGQGTEVTVSS	low polyreactivity
QVQLVESGVGLVQAGGSLRLSCAASGSIFATNDMGWYRQAPGKERELVASISSGGGSTYYADSVKGRFTISRDNAKNTVYFQMNSLKPEDTAVYYCAADRGDTYTTDYDYWGQGTQVTLSS	low polyreactivity

----------
# EXPERIMENTAL DETAILS: yeast display, Sf9 membrane polyspecificity reagent, FACS + sequencing; frameworks hold sequencing errors
READOUT NAME: polyreactivity (PSR sort gate)

Below, each entry is followed by its recorded polyreactivity (PSR sort gate) result.
ENTRY SEQUENCE	RECORDED VALUE
QVQLVESGGGLVQAGGSLRLSCAASGFIFRHNGMGWYRQAPGKERELVAAITKRGGDTYYADSVKGRFTISRDNAKNSVYLQMISLKREDTAVYYCTVDVRYPVSFDYDYWGQGNQVTVSS	low polyreactivity
QVQLVESGGGLVQAGGSLRLSCAASGSTSSTYAKGWYRQAPGKERELVATINWDGASTYYADSVKGRFTISRDNATNTVYLQMNSLKPEDTAVYYCAAQSGAVHFLEDDYWGQGTQVTVSS	low polyreactivity
QVQLVESGGGLVQGGSLRLSCAASGFTFPIYVMGGYRQAPGKERELVASISSVGSTNYADSVKGRFTISRDNAKNTVYLQMNSLKPEDTAVYYCNADAPNSYGGFDYWGQGTQVTVSS	low polyreactivity
QVQLVESGGGLVQAGGSLRLSCAASGSIFYYNVMGWYRQAPGKERELVAAISQSGVRTYYADSVKGRFTISRDNAKNTVYLQMNSLKPEDTAVYYCAAKARRLYASSYDYWGQGTQVTVSS	high polyreactivity

Now turn to the next sequence.
Using the record for QVQLVETGGGLVQAGGSLRLSCAASGSIFTKYAMGRYRQAPGKERELVAAISWSGVSTYYADSVKGRFTISRDNAKNTVYLLMNSLKPEDTAVYYCNTRRYRSYGTTRYCFWGQGTQVTVSS , report its polyreactivity (PSR sort gate).
high polyreactivity

Provenance of the data: the nanobody polyreactivity screen of Harvey et al. (2022)
